# maps each entry to its GI50
- Tested on: HOP-92
- procedure-text: NCI tumour cell line growth inhibition, 48 h
Active and inactive are the calls of the source. Rule as the data show it: active = GI50 up to about 1.1 µM and inactive = higher.

Illustrative cases are given below, each with its answer.
# molecule, target-or-test-system, test-value
data = [
    ("O=c1c(Cl)c(Cl)cnn1CCCl", "HOP-92", "1.93 µM (inactive)"),
    ("COc1cc(OC)cc(-n2c(N)c(-c3nc4ccccc4n3C)c3ccc([N+](=O)[O-])cc3c2=O)c1", "HOP-92", "18.6 µM (inactive)"),
]

Ask: For [N-]=[N+]=CC(=O)c1ccccc1C#CCCc1ccccc1 , what is its reported GI50?
Result: 18.9 µM (inactive)

---

- Test system: SF-539
- procedure-text: NCI tumour cell line growth inhibition, 48 h
Active and inactive are the calls of the source. Rule as the data show it: active = GI50 up to about 1.1 µM and inactive = higher.
Your response should consist of one outcome taken from yes = active, no = inactive

# compound, assigned-class
rows = [
    ("Cc1sc(Nc2ccc(Nc3nc(-c4ccccc4)c(C)s3)cc2)nc1-c1ccccc1", "no"),
    ("COC1=CC(=O)c2c(O)c3c(c(O)c2C1=O)OC1(Oc2c(cc4cc(C)oc(=O)c4c2O)CC1O)C3O (stereo unspecified)", "no"),
    ("CCCCc1c(O)nc(Nc2nc3ccccc3[nH]2)[nH]c1=O", "no"),
    ("Brc1ccc(/C(N=N/C(=N\\Sc2ccccc2)c2ccc(Br)cc2)=N/Sc2ccccc2)cc1", "no"),
]

Ask: What outcome does the record of this test show for CCCCCCCCCCC(C)CCCCCCC(=O)O (stereo unspecified) ?
Result: no

Ask: And then CCOC(=O)/C(=C/c1cccc(Cl)c1)N(CC)CC , what is it?
Result: no

---

# maps each entry to its GI50
- Tested on: NCI/ADR-RES
- procedure-text: NCI tumour cell line growth inhibition, 48 h
Activity calls are given as the source filed them. Rule as the data show it: active = GI50 up to about 1.1 µM and inactive = higher.

Illustrative cases are given below, each with its answer.
# compound, GI50
rows = [
    ("O=C(c1ccccc1)C1C(C(=O)c2ccccc2)C(c2ccccc2)N(c2ccccc2)C1c1ccccc1 (stereo unspecified)", "> 100 µM (inactive)"),
    ("CSC(SC)(C(=O)O)c1cc(-c2c(Cl)cccc2Cl)no1", "26.5 µM (inactive)"),
    ("Cc1ccc2c3c4c(ccc13)C(C)(C)OC4=C(C(C)C)C2=O", "19.5 µM (inactive)"),
    ("COc1cc(Nc2nc3ccc(C(F)(F)F)cc3nc2C(=O)O)cc(OC)c1OC", "21.3 µM (inactive)"),
    ("O=c1n(/N=C/c2ccccc2)c(=O)n2n1C1C=CC2CC1", "> 100 µM (inactive)"),
]

Ask: For Oc1ccc(Cn2c(-c3ccc(O)c(O)c3)nc3ccccc32)cc1O , what is its reported GI50?
Result: 32.9 µM (inactive)

Ask: And then COc1ccc(C)cc1NC(=S)N/N=C/c1ccco1 , what is it?
Result: 31.4 µM (inactive)

Ask: And then COc1ccc2c(c1)/C(=C/CCN(C)C)c1ccccc1S2 , what is it?
Result: > 100 µM (inactive)

---

- System: NCI-H23
- procedure-text: NCI tumour cell line growth inhibition, 48 h
Calls of active or inactive are those of the source. No stated cut-off is given here; in the data, active = GI50 up to about 1.1 µM and inactive = higher.
Your response should consist of one outcome taken from active, inactive

Ask: What outcome does the record of this test show for O=C(O)C1CCCCC1c1c2ccc(=O)cc-2oc2cc(O)ccc12 (configuration not stated) ?
Result: inactive

Ask: And then CC(O)CNC1=CC(=O)C(=O)c2ccccc21 (configuration not stated) , what is it?
Result: inactive
